Reference source for all entries: PubChem BioAssay AID1963965

Tested on: 996289-038-R-J1-PDC spheroid viability
assay-text: Anticancer human tumor 996289-038-R-J1-PDC patient-derived colon adenocarcinoma cell line growth inhibition [PI3K]
condition-description: second compound 1 µM; first compound 10 µM; stronger effect = lower value; spheroids with HUVEC and MSC
recorded-metric: viability, T/C

| compound | recorded-metric | val |
| --- | --- | --- |
| C#Cc1c(F)ccc2cc(O)cc(-c3ncc4c(N5CC6CCC(C5)N6)nc(OCC56CCCN5CC(F)C6)nc4c3F)c12 (stereo not given) + CC(Nc1ncnc2nc[nH]c12)c1cc2cccc(Cl)c2c(=O)n1-c1ccccc1 | viability, T/C | 32.8% |
| CNC(=O)c1ccc(N2C(=S)N(c3ccc(C#N)c(C(F)(F)F)c3)C(=O)C2(C)C)cc1F + CC(Nc1ncnc2nc[nH]c12)c1cc2cccc(Cl)c2c(=O)n1-c1ccccc1 | viability, T/C | 96.9% |
| Cn1ncc(Cl)c1-c1cc(C(=O)NC(CN)Cc2cccc(F)c2)sc1Cl (stereo not given) + CC(Nc1ccc2c(c1)OCCn1cc(N3C(=O)OCC3C(F)F)nc1-2)C(N)=O | viability, T/C | 25.8% |
| CCCS(=O)(=O)Nc1ccc(F)c(C(=O)c2c[nH]c3ncc(-c4ccc(Cl)cc4)cc23)c1F + Cc1nc(NC(=O)N2CCCC2C(N)=O)sc1-c1ccnc(C(C)(C)C(F)(F)F)c1 | viability, T/C | 17% |
| CC(Cn1ccc(-c2ccc(C#N)c(Cl)c2)n1)NC(=O)c1cc(C(C)O)[nH]n1 (stereo not given) + COc1c(OCCCN2CCOCC2)ccc2c3n(c(=NC(=O)c4cnc(N)nc4)nc12)CCN3 | viability, T/C | 17.5% |

###

Test system: 996289-038-R-J1-PDC spheroid viability
assay-text: Anticancer human tumor 996289-038-R-J1-PDC cell line growth inhibition [PI3K];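 note: spheroids exposed to compounds for seven days before viability read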
condition-description: curve of first compound; second compound 1 µM; spheroids with HUVEC and MSC
pIC50: −log10 of the molar value.
recorded-metric: pIC50

| compound | recorded-metric | qualifier | val |
| --- | --- | --- | --- |
| CC(C)NCC(C(=O)N1CCN(c2ncnc3c2C(C)CC3O)CC1)c1ccc(Cl)cc1 (stereo not drawn) + COc1c(OCCCN2CCOCC2)ccc2c3n(c(=NC(=O)c4cnc(N)nc4)nc12)CCN3 | pIC50 | > | 7.50 |
| CC1(C)CCC(Nc2ncc(C(F)(F)F)c(-c3c[nH]c4c(P(C)(C)=O)c(C#N)ccc34)n2)CN1 (stereo not drawn) + CC(Nc1ccc2c(c1)OCCn1cc(N3C(=O)OCC3C(F)F)nc1-2)C(N)=O | pIC50 | = | 5.33 |
| Cn1nccc1Nc1nccc(-c2ccn(C(CO)c3ccc(Cl)c(F)c3)c(=O)c2)n1 (stereo not drawn) + CC(Nc1ccc2c(c1)OCCn1cc(N3C(=O)OCC3C(F)F)nc1-2)C(N)=O | pIC50 | = | 5.65 |

###

System: 996289-038-R-J1-PDC spheroid viability
assay-text: Anticancer human tumor 996289-038-R-J1-PDC cell line growth inhibition [PI3K];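 note: spheroids exposed to compounds for seven days before viability read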;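 for viability, T/C: luminescence used as a proxy for viable cell amount; percent viability relative to DMSO vehicle control as 100%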
condition-description: second compound 0.1 µM; first compound 0.03 µM; stronger effect = lower value; spheroids with HUVEC and MSC
This listing pairs molecules with measured viability, T/C.
recorded-metric: viability, T/C

| molecule | recorded-metric | val |
| --- | --- | --- |
| Cn1cnc2c(F)c(Nc3ccc(Br)cc3Cl)c(C(=O)NOCCO)cc21 + Cc1nc(NC(=O)N2CCCC2C(N)=O)sc1-c1ccnc(C(C)(C)C(F)(F)F)c1 | viability, T/C | 70.4% |
| Cn1cnc2c(F)c(Nc3ccc(Br)cc3Cl)c(C(=O)NOCCO)cc21 + CC(Nc1ncnc2nc[nH]c12)c1cc2cccc(Cl)c2c(=O)n1-c1ccccc1 | viability, T/C | 77% |
| Cn1cnc2c(F)c(Nc3ccc(Br)cc3Cl)c(C(=O)NOCCO)cc21 + COc1c(OCCCN2CCOCC2)ccc2c3n(c(=NC(=O)c4cnc(N)nc4)nc12)CCN3 | viability, T/C | 39.2% |
| Cn1cnc2c(F)c(Nc3ccc(Br)cc3Cl)c(C(=O)NOCCO)cc21 + CC(Nc1ccc2c(c1)OCCn1cc(N3C(=O)OCC3C(F)F)nc1-2)C(N)=O | viability, T/C | 69.3% |
